Attribution: patent US8680275B2

pKi listing for selected molecules.
# test-system: human orexin 1 receptor (Homo sapiens (Human))
# Sequence (O43613 whole entry): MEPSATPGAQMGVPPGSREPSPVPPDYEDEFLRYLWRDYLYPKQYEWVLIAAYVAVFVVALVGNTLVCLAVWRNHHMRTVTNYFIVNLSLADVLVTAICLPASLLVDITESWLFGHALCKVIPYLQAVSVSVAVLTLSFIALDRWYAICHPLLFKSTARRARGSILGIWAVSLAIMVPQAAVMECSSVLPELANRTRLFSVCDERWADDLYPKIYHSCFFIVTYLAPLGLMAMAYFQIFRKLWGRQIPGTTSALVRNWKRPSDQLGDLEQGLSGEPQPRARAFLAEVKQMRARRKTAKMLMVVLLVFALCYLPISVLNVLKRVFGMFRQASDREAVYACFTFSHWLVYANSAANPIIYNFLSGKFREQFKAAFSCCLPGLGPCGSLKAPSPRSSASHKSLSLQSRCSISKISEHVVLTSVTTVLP
# assay-protocol: Human orexin 1 receptor radioligand binding ([3H]-SB674042 competition)
# measurement-parameters: CHO cells stably expressing human orexin 1 receptor; [3H]-SB674042 4 nM final; read-out: OR-1 Ki
pKi: −log10 of the molar value.
result-type: pKi

molecule	result-type	result-value
O=C(c1c(F)cccc1-n1nccn1)N1CC[C@H]2CN(c3cnc4ccccc4n3)[C@H]2C1	pKi	7.64
Cc1cnc(N2C[C@@H]3CCN(C(=O)c4c(F)cccc4-n4nccn4)C[C@@H]32)cn1	pKi	5.18
Cc1cc(C)nc(N2C[C@@H]3CCN(C(=O)c4cccc(F)c4-c4cc[nH]n4)C[C@@H]32)n1	pKi	6.81
O=C(c1cc(F)ccc1-n1nccn1)N1CC[C@H]2CN(c3nc4cc(Cl)ccc4o3)[C@H]2C1	pKi	7.04
Cc1cc(C)nc(N2CC3CN(C(=O)c4ccccc4Br)CC32)n1 (stereo not drawn)	pKi	5.02
Cc1cc(C)nc(N2C[C@@H]3CCN(C(=O)c4cccc(C)c4-n4nccn4)C[C@@H]32)n1	pKi	6.87
Cc1cnc(C)c(N2C[C@@H]3CCN(C(=O)c4c(F)cccc4-n4nccn4)C[C@@H]32)n1	pKi	5.31
Cc1cnc(C)c(N2C[C@@H]3CCN(C(=O)c4cccc(F)c4-n4nccn4)C[C@@H]32)n1	pKi	5.38
Cc1ccc(-c2ccccc2C(=O)N2CC[C@H]3CN(c4cnc5ccccc5n4)[C@H]3C2)cc1	pKi	7.74

---

# test-system: human orexin-2 receptor (Homo sapiens (Human), UniProt O43614)
# Sequence (O43614 whole entry): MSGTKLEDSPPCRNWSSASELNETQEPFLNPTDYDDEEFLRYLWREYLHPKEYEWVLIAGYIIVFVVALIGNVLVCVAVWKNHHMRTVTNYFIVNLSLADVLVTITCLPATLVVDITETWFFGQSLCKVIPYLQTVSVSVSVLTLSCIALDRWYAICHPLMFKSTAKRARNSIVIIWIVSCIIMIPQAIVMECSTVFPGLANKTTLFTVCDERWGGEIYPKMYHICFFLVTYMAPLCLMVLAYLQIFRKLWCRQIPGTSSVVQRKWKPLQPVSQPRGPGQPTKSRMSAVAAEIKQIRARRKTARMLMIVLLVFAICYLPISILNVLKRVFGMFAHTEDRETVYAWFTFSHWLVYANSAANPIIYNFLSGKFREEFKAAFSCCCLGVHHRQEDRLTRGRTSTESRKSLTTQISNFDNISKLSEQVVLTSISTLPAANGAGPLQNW
# assay-protocol: Human orexin 2 receptor radioligand binding ([3H]-EMPA competition)
# measurement-parameters: HEK293 cells stably expressing human orexin-2 receptor; [3H]-EMPA 5 nM final; read-out: OR-2 Ki
Binary call on Ki with cut-off 200 nM: strictly below means true (1), and equality or higher means false (0).

compound	test-system	category
Cc1cc(C)nc(N2C[C@@H]3CCN(C(=O)c4cn[nH]c4-c4ccccc4)C[C@@H]32)n1	human orexin-2 receptor (Homo sapiens (Human), UniProt O43614)	false (0)
Cc1cc(N2C[C@@H]3CCN(C(=O)c4ccc(F)cc4-n4nccn4)C[C@@H]32)nc(C(F)(F)F)n1	human orexin-2 receptor (Homo sapiens (Human), UniProt O43614)	true (1)
Cc1nc(C(=O)N2CC3CN(c4cnc5ccccc5n4)C3C2)c(-c2ccccc2F)s1 (stereo not shown)	human orexin-2 receptor (Homo sapiens (Human), UniProt O43614)	false (0)
COc1ccc(-n2nccn2)c(C(=O)N2CC[C@H]3CN(c4cc(C)cc(C)n4)[C@H]3C2)c1	human orexin-2 receptor (Homo sapiens (Human), UniProt O43614)	true (1)
Cc1cnc(N2C[C@@H]3CCN(C(=O)c4c(F)cccc4-n4nccn4)C[C@@H]32)cn1	human orexin-2 receptor (Homo sapiens (Human), UniProt O43614)	true (1)
COc1ccccc1C(=O)N1CC2CN(c3cnc4ccccc4n3)C2C1 (stereo not shown)	human orexin-2 receptor (Homo sapiens (Human), UniProt O43614)	false (0)
Cc1cc(N2C[C@@H]3CCN(C(=O)c4cc(F)ccc4-n4nccn4)C[C@@H]32)nc(N)n1	human orexin-2 receptor (Homo sapiens (Human), UniProt O43614)	false (0)
Cc1cc(C)nc(N2C[C@@H]3CCN(C(=O)c4cc(F)ccc4-c4ccn[nH]4)C[C@@H]32)n1	human orexin-2 receptor (Homo sapiens (Human), UniProt O43614)	true (1)
Cc1ccnc(N2C[C@@H]3CCN(C(=O)c4cc(F)ccc4-n4nccn4)C[C@@H]32)c1	human orexin-2 receptor (Homo sapiens (Human), UniProt O43614)	false (0)
O=C(c1cc(F)ccc1-n1nccn1)N1CC[C@H]2CN(c3cnc4ccccc4n3)[C@H]2C1	human orexin-2 receptor (Homo sapiens (Human), UniProt O43614)	true (1)
Cc1cnc(N2C[C@@H]3CCN(C(=O)c4cccc(F)c4-n4nccn4)C[C@@H]32)cn1	human orexin-2 receptor (Homo sapiens (Human), UniProt O43614)	false (0)
Cc1cc(C)nc(N2C[C@@H]3CCN(C(=O)c4cccnc4C(F)(F)F)C[C@@H]32)n1	human orexin-2 receptor (Homo sapiens (Human), UniProt O43614)	false (0)
Cc1cc(C)nc(N2C[C@@H]3CCN(C(=O)c4ncoc4-c4ccccc4F)C[C@@H]32)n1	human orexin-2 receptor (Homo sapiens (Human), UniProt O43614)	false (0)
Cc1cc(C)nc(N2C[C@@H]3CCN(C(=O)c4cccc5c4-c4ccccc4C5=O)C[C@@H]32)n1	human orexin-2 receptor (Homo sapiens (Human), UniProt O43614)	false (0)
Cc1cc(C)nc(N2C[C@@H]3CCN(C(=O)c4cc(C)c(C)nc4-n4ccnn4)C[C@@H]32)n1	human orexin-2 receptor (Homo sapiens (Human), UniProt O43614)	true (1)
CCOc1ccc2ccccc2c1C(=O)N1CC2CN(c3nc(C)cc(C)n3)C2C1 (stereo not shown)	human orexin-2 receptor (Homo sapiens (Human), UniProt O43614)	true (1)
Cc1cc(C)nc(N2C[C@@H]3CCN(C(=O)c4nc(C)sc4-c4ccc(F)cc4)C[C@@H]32)n1	human orexin-2 receptor (Homo sapiens (Human), UniProt O43614)	true (1)
COc1ccc(Br)c(C(=O)N2CC[C@H]3CN(c4nc(C)cc(C)n4)[C@H]3C2)c1F	human orexin-2 receptor (Homo sapiens (Human), UniProt O43614)	true (1)
Cc1cc(C)nc(N2C[C@@H]3CCN(C(=O)c4ccccc4-n4cccc4)C[C@@H]32)n1	human orexin-2 receptor (Homo sapiens (Human), UniProt O43614)	true (1)
Cc1cc(C)nc(N2C[C@@H]3CCN(C(=O)c4cc(F)ccc4-c4ccn(C)n4)C[C@@H]32)n1	human orexin-2 receptor (Homo sapiens (Human), UniProt O43614)	true (1)
Cc1nc(N)cc(N2C[C@@H]3CCN(C(=O)c4cc(F)ccc4-n4nccn4)C[C@@H]32)n1	human orexin-2 receptor (Homo sapiens (Human), UniProt O43614)	false (0)
COc1ccc(C(=O)N2CC[C@H]3CN(c4nc(C)cc(C)n4)[C@H]3C2)c(-n2nccn2)n1	human orexin-2 receptor (Homo sapiens (Human), UniProt O43614)	false (0)
Cc1cc(C)nc(N2C[C@@H]3CCN(C(=O)c4cc(F)ccc4-c4cncnc4)C[C@@H]32)n1	human orexin-2 receptor (Homo sapiens (Human), UniProt O43614)	false (0)
COc1ccc(-n2nccn2)c(C(=O)N2CC[C@H]3CN(c4cc(C(F)(F)F)ccn4)[C@H]3C2)c1	human orexin-2 receptor (Homo sapiens (Human), UniProt O43614)	true (1)
Cc1cc(C)nc(N2CC3CN(C(=O)c4ccccc4-c4cccs4)CC32)n1 (stereo not shown)	human orexin-2 receptor (Homo sapiens (Human), UniProt O43614)	true (1)

---

# test-system: human orexin-2 receptor (Homo sapiens (Human), UniProt O43614)
# assay-protocol: Human orexin 2 receptor radioligand binding ([3H]-EMPA competition)
# measurement-parameters: HEK293 cells stably expressing human orexin-2 receptor; [3H]-EMPA 5 nM final; read-out: OR-2 Ki
pKi: −log10 of the molar value.
result-type: pKi

compound	result-value
Cc1cc(C)nc(N2C[C@@H]3CCN(C(=O)c4cccc(C)c4-n4cccn4)C[C@@H]32)n1	7.44
Cc1onc(-c2ccccc2)c1C(=O)N1CC[C@H]2CN(c3ccnc(-c4ccccc4)n3)[C@H]2C1	5.51
O=C(c1c(F)cccc1-n1nccn1)N1CC[C@H]2CN(c3nc4cc(Cl)ccc4o3)[C@H]2C1	7.59
O=C(c1ccccc1-c1cccs1)N1CC2CN(c3cnc4ccccc4n3)C2C1 (stereo not drawn)	7.11
O=C(c1ccccc1-c1ccccc1)N1CCC2CN(c3nccc(-c4ccccc4)n3)C2C1 (stereo not drawn)	7.48
Cc1cc(C)nc(N2C[C@@H]3CCN(C(=O)c4ncccc4-n4ccnn4)C[C@@H]32)n1	5.82
O=C(c1cc(F)ccc1-n1nccn1)N1CC[C@H]2CN(c3nccc(C(F)(F)F)n3)[C@H]2C1	6.43
Cc1cnc(C)c(N2C[C@@H]3CCN(C(=O)c4ccc(F)cc4-n4nccn4)C[C@@H]32)n1	7.09
Cc1cnc(C)c(N2C[C@@H]3CCN(C(=O)c4cc(F)ccc4-n4nccn4)C[C@@H]32)n1	5.89

---

# test-system: human orexin-2 receptor (Homo sapiens (Human), UniProt O43614)
# assay-protocol: Human orexin 2 receptor radioligand binding ([3H]-EMPA competition)
# measurement-parameters: HEK293 cells stably expressing human orexin-2 receptor; [3H]-EMPA 5 nM final; read-out: OR-2 Ki
result-type: Ki

compound	result-value
Cc1cc(C)nc(N2C[C@H]3CCN(C(=O)c4ccccc4-c4ccccc4)C[C@H]32)n1	763 nM
Cc1cc(C)nc(N2C[C@@H]3CCN(C(=O)c4cnoc4-c4ccccc4)C[C@@H]32)n1	1300 nM
O=C(c1ccccc1-c1ccccc1)N1CC2CN(c3cnc4ccccc4n3)C2C1 (stereo not drawn)	179 nM
